Taken from PubChem BioAssay (NCI).

- Tested on: M14 melanoma
- ASSAY_SUMMARY: NCI tumour cell line growth inhibition, 48 h
Quick reference for TGI among some molecules
QUANTITY_NAME: TGI (µM)

[
  {
    "MOLECULE": "Cn1c(=O)c2c(nc3n(CCCCl)c(=O)ccn23)n(C)c1=O",
    "MEASUREMENT_TARGET": "M14 melanoma",
    "LT_GT_EQ": ">",
    "ENDPOINT_RESULT": 100
  },
  {
    "MOLECULE": "OCCOCCN1CCN(CCCN2c3ccccc3Sc3ccc(C(F)(F)F)cc32)CC1",
    "MEASUREMENT_TARGET": "M14 melanoma",
    "LT_GT_EQ": "=",
    "ENDPOINT_RESULT": 5.39
  },
  {
    "MOLECULE": "CC1OC(OC2C(O)COC(OC3C(C)OC(OC4C(OC(=O)[C@]56CCC(C)(C)C[C@@H]5C5=CCC7[C@@]8(C)C[C@H](O)[C@H](OC9OC(CO)C(O)C(OC%10OC(CO)C(O)C(O)C%10O)C9O)[C@@](C)(CO)[C@@H]8CC[C@@]7(C)[C@]5(C)CC6)OCC(O)C4O)C(O)C3OC3OCC(O)(CO)C3O)C2O)C(O)C(O)C1O (some centres undefined)",
    "MEASUREMENT_TARGET": "M14 melanoma",
    "LT_GT_EQ": "=",
    "ENDPOINT_RESULT": 13
  },
  {
    "MOLECULE": "CN1Cc2cc3cc4c(cc3nc2N(C)C1)OCCO4",
    "MEASUREMENT_TARGET": "M14 melanoma",
    "LT_GT_EQ": ">",
    "ENDPOINT_RESULT": 100
  }
]
